method: Stability in mouse blood assessed as compound remaining after 30 mins by HPLC analysis
Format: ADME, tissue-based
conditions: read-out: Stability
reported_property: remaining at 0.5 h (%)

Example cases with answers are listed next.
{"columns": ["compound", "unit_symbol", "remaining at 0.5 h"],
 "data": [
  ["Cc1nc(N2CCC(N3CCOCC3)CC2)nc2ccc(NC(=O)COc3ccc(OC(F)(F)F)cc3)cc12", "%", 29],
  ["Cc1nc(N2CCC(C(=O)NC(C)C)CC2)nc2ccc(NC(=O)COc3ccc(Cl)cc3)cc12", "%", 49]
]}

1 = Cc1nc(N2CCC(N3CCCC3)CC2)nc2ccc(NC(=O)C(C)Oc3ccc(Cl)cc3)cc12 (centres undefined)
2 = Cc1nc(N2CCN(C(=O)C3CCC3)CC2)nc2ccc(NC(=O)COc3ccc(OC(F)(F)F)cc3)cc12
input: // compare measured remaining at 0.5 h, left 1 , right 2 , return larger Select an item and report its label.
output: 1
